- assay.target: ATAD2A (Homo sapiens)
- Construct: T7 phage strains displaying bromodomains were grown in parallel; purchased DiscoverX; host or cells: T7 phage in E. coli host derived from BL21
- Sequence (Q6PL18 980-1092 limits assumed): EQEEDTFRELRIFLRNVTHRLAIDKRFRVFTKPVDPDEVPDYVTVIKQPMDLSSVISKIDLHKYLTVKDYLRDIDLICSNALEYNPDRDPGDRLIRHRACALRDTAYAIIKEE
- run.description: BROMOscan BromoKdMAX
- Format: binding
So I've got a bunch of compounds here, and I need their Kd values.

>  <chemical.smiles>
CO[C@H]1CC[C@H](n2c([C@@H]3CCCC(=O)N3c3ccc(F)c(F)c3)nc3cc(-c4c(C)noc4C)ccc32)CC1

>  <Kd>
> 10 µM

$$$$

// next entry
What value of measured Kd is listed for `CC(=O)N1C[C@H](c2nc(Nc3cccc(-c4cn(C)nn4)c3)cc(-c3cnccn3)n2)CC[C@@H]1C` ? > 10 µM
